Assignment: determine reported inhibition at 20 min, 10 µM for the given compounds.
# system: CYP1A2 (Homo sapiens)
# Construct: A system of 100 μL human liver microsomes; from tissue; host or cells: human liver microsomes
# Sequence (P05177 1-516): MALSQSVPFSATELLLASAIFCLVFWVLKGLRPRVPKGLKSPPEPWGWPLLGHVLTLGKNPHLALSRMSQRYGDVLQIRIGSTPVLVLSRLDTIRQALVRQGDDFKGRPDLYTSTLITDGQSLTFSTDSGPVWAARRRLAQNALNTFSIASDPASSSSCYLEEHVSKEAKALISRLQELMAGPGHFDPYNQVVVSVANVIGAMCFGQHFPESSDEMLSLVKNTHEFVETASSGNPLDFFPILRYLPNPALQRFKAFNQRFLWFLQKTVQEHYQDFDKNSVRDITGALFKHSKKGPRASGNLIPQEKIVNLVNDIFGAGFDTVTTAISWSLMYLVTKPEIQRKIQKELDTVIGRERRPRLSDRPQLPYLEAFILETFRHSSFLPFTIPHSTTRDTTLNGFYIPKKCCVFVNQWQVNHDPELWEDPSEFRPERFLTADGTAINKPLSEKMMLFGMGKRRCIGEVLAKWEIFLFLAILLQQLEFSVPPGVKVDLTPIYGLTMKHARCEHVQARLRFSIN
# assay: Direct inhibition (DI) of CYP1A2 in human liver microsomes
# Assay type: in vitro ADME
# study.conditions: probe Phenacetin, human liver microsomes 0.2 mg/mL, 10 μM compound, read-out: Direct inhibition (DI) 1A2 (Phenacetin)
Give the quantity in %, number only.

**Query** # query: inhibition at 20 min, 10 µM | item CCOc1cc2ncnc(Nc3ccc(Oc4cc5nncn5cn4)c(C)c3)c2cc1NC(=O)/C=C/[C@H]1CCCN1 | system: CYP1A2 (Homo sapiens)
**Result** 3

**Query** # query: inhibition at 20 min, 10 µM | item Cc1cc(Nc2ncnc3ccc(NC(=O)/C=C/[C@H]4CCCN4C)cc23)ccc1Oc1ccn2ccnc2c1 | system: CYP1A2 (Homo sapiens)
**Result** 9

**Query** # query: inhibition at 20 min, 10 µM | item CCOc1cc2ncnc(Nc3ccc(Oc4ccn5ncnc5c4)c(C)c3)c2cc1NC(=O)/C(F)=C\[C@@H]1CCCN1C | system: CYP1A2 (Homo sapiens)
**Result** 23

**Query** # query: inhibition at 20 min, 10 µM | item CCOc1cc2ncnc(Nc3ccc(Oc4ccn5ncnc5c4)c(C)c3)c2cc1NC(=O)/C(F)=C/[C@H]1CCCN1C | system: CYP1A2 (Homo sapiens)
**Result** 8

**Query** # query: inhibition at 20 min, 10 µM | item C=CC(=O)N[C@@H]1CCCN(c2ccc3ncnc(Nc4ccc(Oc5cc6nncn6cn5)c(C)c4)c3c2)C1 | system: CYP1A2 (Homo sapiens)
**Result** 14

----------
Assignment: determine reported inhibition at 20 min, 10 µM for the given compounds.
# system: CYP2D6 (Homo sapiens, UniProt P10635)
# Construct: A system of 100 μL human liver microsomes; from tissue; host or cells: human liver microsomes
# Sequence (P10635 whole entry): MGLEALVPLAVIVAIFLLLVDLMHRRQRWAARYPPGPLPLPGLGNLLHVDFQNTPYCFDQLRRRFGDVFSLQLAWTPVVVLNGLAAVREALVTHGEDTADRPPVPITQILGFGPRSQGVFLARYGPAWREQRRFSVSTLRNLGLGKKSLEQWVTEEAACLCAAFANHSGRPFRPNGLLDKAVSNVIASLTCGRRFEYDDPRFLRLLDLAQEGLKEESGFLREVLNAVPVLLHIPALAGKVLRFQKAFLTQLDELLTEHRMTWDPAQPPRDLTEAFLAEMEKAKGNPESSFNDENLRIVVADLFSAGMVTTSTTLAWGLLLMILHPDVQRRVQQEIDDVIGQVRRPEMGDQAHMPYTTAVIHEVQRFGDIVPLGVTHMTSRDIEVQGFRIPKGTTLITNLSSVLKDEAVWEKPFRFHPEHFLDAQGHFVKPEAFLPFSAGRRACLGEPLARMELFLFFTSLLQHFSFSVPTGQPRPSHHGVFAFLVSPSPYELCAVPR
# assay: Direct inhibition (DI) of CYP2D6 in human liver microsomes
# Type: in vitro ADME
# study.conditions: probe Dextromethorphan, human liver microsomes 0.2 mg/mL, 10 μM compound, read-out: Direct inhibition (DI) 2D6 (Dextromethorphan)

**Query** Could you share which inhibition at 20 min, 10 µM value was measured for CCOc1cc2ncnc(Nc3ccc(Oc4ccn5ncnc5c4)c(C)c3)c2cc1NC(=O)/C=C/[C@H]1CCCN1C ?
**Result** 48%

**Query** Could you share which inhibition at 20 min, 10 µM value was measured for Cc1cc(Nc2ncnc3ccc(NC(=O)/C=C/[C@H]4CCCN4C)cc23)ccc1Oc1cc2nccn2cn1 ?
**Result** 71%

**Query** Could you share which inhibition at 20 min, 10 µM value was measured for C=C(F)C(=O)N1CC=C(c2ccc3ncnc(Nc4ccc(Oc5cc6nncn6cn5)c(C)c4)c3c2)CC1 ?
**Result** 30%

**Query** Could you share which inhibition at 20 min, 10 µM value was measured for Cc1cc(Nc2ncnc3ccc(NC(=O)/C=C/[C@H]4CCCN4C)cc23)ccc1Oc1ccn2ncnc2n1 ?
**Result** 77%

**Query** Could you share which inhibition at 20 min, 10 µM value was measured for CCOc1cc2ncc(C#N)c(Nc3ccc(OCc4ccccn4)c(Cl)c3)c2cc1NC(=O)/C=C/[C@H]1CCCN1C [Pyrotinib, reference compound] ?
**Result** 55%

**Query** Could you share which inhibition at 20 min, 10 µM value was measured for Cc1cc(Nc2ncnc3ccc(NC(=O)/C=C/[C@H]4CCCN4C)cc23)ccc1Oc1ccc2nccn2c1 ?
**Result** 90%

Origin of the recorded values: patent US11578074B2
